Test system: DU-145 prostate
MEASUREMENT_DESCRIPTION: NCI tumour cell line growth inhibition, 48 h
RECORDED_METRIC: GI50

Previously resolved entries follow.
CNC(=O)Oc1cc(C(C)C)ccc1Sc1ccc(C(C)C)cc1OC(=O)NC :: 4320 nM
CCOc1ccc(N(C)c2ccc(/C=C/C3=[N+](C)c4ccccc4C3(C)C)cc2)cc1 :: 421 nM
CN1CCN(Cc2ccc(NC(=O)c3cncc(C#Cc4cnc(N)c5ncccc45)c3)cc2C(F)(F)F)CC1 :: 370 nM

Continue with the compound presented below.
For the compound shown here, COC(=O)[C@@H](C)C[C@H](Cc1ccccc1)NC(=O)c1nc([C@@H](C[C@H](C(C)C)N(C)C(=O)[C@@H](NC(=O)[C@H]2C[C@H](O)CCN2C)C(C)C)OC(C)=O)sc1C(C)C , give the reported GI50. 3.95 nM
